Where do the numbers come from? From patent US12569485B2.

- Measured on: SMARCA2 (Homo sapiens)
pIC50: −log10 of the molar value.

Chemical smiles	pIC50
Oc1ccccc1-c1ccc(NC2CCNCC2)nn1	4.30 to 6.00
C[C@@H]1c2c([nH]c3nnc(-c4ccccc4O)cc23)CCN1c1nccc(C2CCNCC2)n1	> 6.00
CC(=O)n1ncc2c(-c3cnn(C)c3)c(N)ncc21	< 3.70
Oc1ccccc1-c1cc(N2CCNCC2)c(NC2COC2)nn1	3.70 to 4.29
C[C@H]1c2c([nH]c3nnc(-c4ccccc4O)cc23)CCN1c1nccc(C2CCNCC2)n1	> 6.00
Oc1ccccc1-c1cc2c(nn1)NC[C@H]1CN(c3ncccn3)CCN21	> 6.00
Nc1ncc(N2C(=O)CCC2=O)cc1N1CCNCC1	< 3.70
C[C@H]1c2c([nH]c3nnc(-c4ccccc4O)cc23)CCN1c1ncccn1	> 6.00
Oc1ccccc1-c1cc2c(cc3n2CCN(c2ncccn2)C3)nn1	4.30 to 6.00
Nc1ncc(N2CCNCC2=O)cc1N1CCNCC1	< 3.70
O=c1[nH]c2nnc(-c3ccccc3O)cc2n2cc(C3CCNCC3)cc12	4.30 to 6.00
O=c1[nH]c2nnc(-c3ccccc3O)cc2c2c1CNCC2	4.30 to 6.00

* * *

Each entry below carries its measured IC50, system: SMARCA2 (Homo sapiens, UniProt P51531).
Sequence (P51531 whole entry): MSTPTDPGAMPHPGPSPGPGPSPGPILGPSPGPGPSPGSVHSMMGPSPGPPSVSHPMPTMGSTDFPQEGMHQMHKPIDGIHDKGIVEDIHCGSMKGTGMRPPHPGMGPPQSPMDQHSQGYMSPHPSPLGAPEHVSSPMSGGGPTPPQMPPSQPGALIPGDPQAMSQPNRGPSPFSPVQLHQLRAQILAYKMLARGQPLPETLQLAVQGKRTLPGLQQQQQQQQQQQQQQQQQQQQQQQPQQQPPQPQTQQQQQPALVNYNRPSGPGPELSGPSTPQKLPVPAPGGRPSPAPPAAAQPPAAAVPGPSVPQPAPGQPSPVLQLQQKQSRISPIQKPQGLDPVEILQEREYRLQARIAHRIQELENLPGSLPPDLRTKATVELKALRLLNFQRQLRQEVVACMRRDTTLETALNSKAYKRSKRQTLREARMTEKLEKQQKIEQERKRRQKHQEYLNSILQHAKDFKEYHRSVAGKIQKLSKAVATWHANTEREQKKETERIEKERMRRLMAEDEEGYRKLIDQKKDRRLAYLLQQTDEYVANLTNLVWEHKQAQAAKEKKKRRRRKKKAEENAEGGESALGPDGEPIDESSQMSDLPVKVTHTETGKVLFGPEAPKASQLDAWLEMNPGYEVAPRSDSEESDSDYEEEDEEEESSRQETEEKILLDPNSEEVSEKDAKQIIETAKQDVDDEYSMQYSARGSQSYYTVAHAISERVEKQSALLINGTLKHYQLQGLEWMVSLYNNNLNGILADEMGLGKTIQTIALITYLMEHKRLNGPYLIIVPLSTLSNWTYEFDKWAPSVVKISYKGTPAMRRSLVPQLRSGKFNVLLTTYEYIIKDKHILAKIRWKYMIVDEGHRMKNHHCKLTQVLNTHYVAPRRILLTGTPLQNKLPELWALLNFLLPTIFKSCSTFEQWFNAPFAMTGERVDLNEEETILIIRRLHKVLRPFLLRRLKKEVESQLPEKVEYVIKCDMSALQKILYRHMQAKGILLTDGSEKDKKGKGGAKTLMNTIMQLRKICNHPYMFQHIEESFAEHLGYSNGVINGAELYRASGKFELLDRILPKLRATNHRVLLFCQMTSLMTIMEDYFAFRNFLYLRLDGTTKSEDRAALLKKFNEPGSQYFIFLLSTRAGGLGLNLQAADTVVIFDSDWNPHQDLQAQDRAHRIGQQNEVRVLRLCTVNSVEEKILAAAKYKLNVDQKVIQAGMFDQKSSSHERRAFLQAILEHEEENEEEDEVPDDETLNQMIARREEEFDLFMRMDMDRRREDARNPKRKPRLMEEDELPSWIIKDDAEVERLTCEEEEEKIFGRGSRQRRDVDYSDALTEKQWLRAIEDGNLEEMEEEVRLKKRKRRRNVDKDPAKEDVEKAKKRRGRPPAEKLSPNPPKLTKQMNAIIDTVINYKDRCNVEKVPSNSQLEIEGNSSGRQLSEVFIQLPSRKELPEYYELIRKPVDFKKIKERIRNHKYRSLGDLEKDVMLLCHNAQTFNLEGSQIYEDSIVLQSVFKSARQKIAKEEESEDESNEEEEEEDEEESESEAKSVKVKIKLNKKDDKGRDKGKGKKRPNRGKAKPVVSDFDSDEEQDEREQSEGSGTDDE
Structures can show the parent of a compound that is named as a salt.
Readout kind: IC50

Compound	Meas value
O=C1Nc2nnc(-c3ccccc3O)cc2C12CCN(c1ccccc1)CC2	1 to 50 µM
O=C1Nc2nnc(-c3ccccc3O)cc2C12CCN(Cc1ccccc1)CC2	1 to 50 µM
COCCNc1nnc(-c2ccccc2O)cc1N1CCNCC1	> 200 µM
CC(=O)Nc1cnc(N)c(-c2cnn(C)c2)c1C	> 200 µM
Oc1ccccc1-c1cc2c(nn1)NC[C@H]1CNCCN21	1 to 50 µM
C[C@@H]1c2c([nH]c3nnc(-c4ccccc4O)cc23)CCN1c1ncccn1	< 1 µM
Nc1ncc2c(Cl)cccc2c1N1CCNCC1	> 200 µM
Nc1ncc(N2CCNC2=O)cc1N1CCNCC1	> 200 µM
Oc1ccccc1-c1cc2c(nn1)NC[C@@H]1CN(c3ncccn3)CCN21	< 1 µM
O=C1NCCc2[nH]c3nnc(-c4ccccc4O)cc3c21	1 to 50 µM
C[C@@H]1c2c([nH]c3nnc(-c4ccccc4O)cc23)CCN1c1ncc(C2CCNCC2)cn1	< 1 µM
C[C@H]1NCCc2[nH]c3nnc(-c4ccccc4O)cc3c21	51 to 200 µM
O=c1[nH]c2nnc(-c3ccccc3O)cc2c2c1CCNC2 [I-1, hydrochloride]	1 to 50 µM
CC(=O)Nc1nnc(-c2ccccc2O)cc1N1CCNCC1	51 to 200 µM
C[C@H]1c2c([nH]c3nnc(-c4ccccc4O)cc23)CCN1c1ncc(C2CCNCC2)cn1	< 1 µM
Oc1ccccc1-c1cc2c(nn1)NCC1CNCCN21 (centres unmarked) [I-120, 2,2,2-trifluoroacetate]	1 to 50 µM
CC(C)(C)OC(=O)N1CC=C(c2cc3c(=O)[nH]c4nnc(-c5ccccc5O)cc4n3c2)CC1	1 to 50 µM
O=C1Nc2nnc(-c3ccccc3O)cc2C12CCNCC2	> 200 µM
C[C@@H]1NCCc2[nH]c3nnc(-c4ccccc4O)cc3c21	51 to 200 µM
Oc1ccccc1-c1cc2c(nn1)[nH]c1ccc(C3CCNCC3)cc12	< 1 µM
